Listed here are molecules together with their documented MIC.
- System: Escherichia coli
- Assay info: Potentiation of chloramphenicol-induced antibacterial activity against wild type Escherichia coli BW25113 assessed as chloramphenicol MIC at 512 ug/ml incubated for 18 hrs under aerobic condition by checkerboard titration assay (reference value: 16 ug/ml)
- Format: functional
- Conditions: dose 512 µg/ml
Measurement type: MIC (µg/mL)

Smiles data | Experimental target | Measurement type | Recorded value
O=C(NCc1ccccc1)c1cc(OCc2ccccc2)c2ccccc2c1 | Escherichia coli | MIC | 16
O=C(Nc1ccccc1C(F)(F)F)c1cc(OCc2ccccc2)c2ccccc2c1 | Escherichia coli | MIC | 2
CC(C)CCOc1cc(C(N)=O)cc2ccccc12 | Escherichia coli | MIC | 4
O=C(Nc1ccccc1)c1cc(OCc2ccccc2)c2ccccc2c1 | Escherichia coli | MIC | 16
O=C(NC1CCCCC1)c1cc(OCc2ccccc2)c2ccccc2c1 | Escherichia coli | MIC | 16

----------
Listed here are compounds together with their documented MIC.
- Tested on: Escherichia coli
- Assay info: Potentiation of chloramphenicol-induced antibacterial activity against AcrB deficient Escherichia coli BW25113 assessed as chloramphenicol MIC at 256 ug/ml incubated for 18 hrs under aerobic condition by checkerboard titration assay (reference value: 2 ug/ml)
- Assay type: functional
- Conditions: dose 256 µg/ml
Measurement type: MIC (µg/mL)

Smiles data | Unit abbreviation | Recorded value
CC(C)CCOc1cc(C(=O)NCc2ccccc2Cl)cc2ccccc12 | µg/mL | 2
CCCNC(=O)c1cc(OCc2ccccc2)c2ccccc2c1 | µg/mL | 2
O=C(NCc1ccco1)c1cc(OCc2ccccc2)c2ccccc2c1 | µg/mL | 2
CC(C)CCOc1cc(C(=O)NCc2ccco2)cc2ccccc12 | µg/mL | 2
NC(=O)c1cc(OCCNC2CCCCC2)c2ccccc2c1 | µg/mL | 1
CC(C)CCOc1cc(C(=O)Nc2ccccc2C(F)(F)F)cc2ccccc12 | µg/mL | 2

----------
- Test system: Cell membrane
- Assay info: Disruption of inner membrane potential in wild type Escherichia coli BW25113 at 512 ug/ml preincubated for 10 mins followed by glucose stimulation and CCCP addition by DiOC2 probe based fluorimetric analysis
- Format: subcellular
- Conditions: dose 512.0 µg/ml
The source made the active and inactive calls. No cut-off for these calls is given here.

Smiles data | Activity
CCCNC(=O)c1cc(OCc2ccccc2)c2ccccc2c1 | Active
NC(=O)c1cc(OCCOc2ccccc2N)c2ccccc2c1 | Active
NC(=O)c1cc(OCCN2CCN(c3ccccc3)CC2)c2ccccc2c1 | inactive
NC(=O)c1cc(OCCSc2nc3ccccc3[nH]2)c2ccccc2c1 | inactive
NC(=O)c1cc(OCCNC2CCCCC2)c2ccccc2c1 | inactive
CC(C)CCOc1cc(C(=O)NCc2ccccc2Cl)cc2ccccc12 | Active
CCCCCCNC(=O)c1cc(OCc2ccccc2)c2ccccc2c1 | Active
C#CCNC(=O)c1cc(OCCC(C)C)c2ccccc2c1 | Active
CC(C)CCOc1cc(C(=O)Nc2ccccc2C(F)(F)F)cc2ccccc12 | inactive
CC(C)CCOc1cc(C(=O)NCCc2ccccc2)cc2ccccc12 | inactive
O=C(NCc1ccco1)c1cc(OCc2ccccc2)c2ccccc2c1 | Active
CC(C)CCOc1cc(C(=O)NCc2ccco2)cc2ccccc12 | Active
O=C(Nc1ccccc1)c1cc(OCc2ccccc2)c2ccccc2c1 | Active
CC(C)CCOc1cc(C(=O)NC2CCCCC2)cc2ccccc12 | inactive
NC(=O)c1cc(OCCNCc2ccc(O)cc2)c2ccccc2c1 | inactive
NC(=O)c1cc(OCCNCc2ccco2)c2ccccc2c1 | inactive
CC(C)NCCOc1cc(C(N)=O)cc2ccccc12 | inactive
O=C(NCc1ccccc1Cl)c1cc(OCc2ccccc2)c2ccccc2c1 | Active
